Let's go through some recorded pIC50 values for c-Met (Homo sapiens, UniProt P08581) together.
pIC50: −log10 of the molar value.
property_label: pIC50

[I] O=C1NC(=O)[C@@H](c2cn3c4c(cccc24)[C@H](O)CC3)[C@@H]1c1c[nH]c2ccccc12
[II] O=C1NC(=O)[C@@H](c2cn3c4c(cccc24)CCC3=O)[C@@H]1c1c[nH]c2ccccc12 (racemic)
Task for the reader: decide whether I or II has the larger pIC50. Indicate which entry you chose by stating its label.
II

----------
- Tested on: HT29
- test_details: Cell proliferation analysis (MTS assay)
- Type: cell-based
- measurement_parameters: Homo sapiens, HT-29, HT29 cells, treated for 72 hours, read-out: Antiproliferative activity (HT29 MTS GI50)
property_label: GI50 (µM)

Solved cases below.
O=C1NC(=O)[C@@H](c2cn3c4c(cccc24)[C@H](O)CC3)[C@@H]1c1c[nH]c2ccccc12 :: 3.7
O=C1NC(=O)[C@@H](c2cn3c4c(cccc24)CCC3=O)[C@@H]1c1c[nH]c2ccccc12 (racemic) :: 3.1
O=C1NC(=O)[C@@H](c2cn3c4c(cccc24)[C@@H](O)CC3)[C@@H]1c1c[nH]c2ccccc12 :: 1.5
O=C1CCn2cc([C@@H]3C(=O)NC(=O)[C@H]3c3c[nH]c4ccccc34)c3cccc1c32 (racemic) :: 0.68

[I] O=C1NC(=O)[C@H](c2cn3c4c(cccc24)[C@@H](O)CC3)[C@H]1c1c[nH]c2ccccc12
[II] O=C1NC(=O)[C@H](c2cn3c4c(cccc24)[C@H](O)CC3)[C@H]1c1c[nH]c2ccccc12
Pick one: I or II . Which one has the lower reported GI50? Indicate which entry you chose by stating its label.
II

These measurements were taken from patent US8470786B2.
